Assay: qHTS of pediatric cancer cell lines to identify multiple opportunities for drug repurposing: Primary screen for SK-N-MC cells (AID 1347093)
Conditions: SK-N-MC viability, CellTiter-Glo luminescence, 48 h; series mostly up to 46 µM
Results filed as inconclusive are left out. Activity calls are given as the source filed them. Calls come from the whole dose curve; as a rule, active = well fitted cell-killing curve with a large enough effect; inconclusive = small, poorly fitted or top-dose-only effect; inactive = no such curve, though single readings can be large or run the other way.
Outcome field: choose from 1 (active), -1 (inactive)

Q. # lookup: test call for O=C(O)Cc1ccc2c(c1)C(=O)c1ccccc1CO2
A. -1

Q. # lookup: test call for COC(=O)c1nc(Cl)c(Cl)nc1N
A. 1

Others:
Q. # lookup: test call for Cc1c(N)c(=O)n(-c2ccccc2)n1C
A. -1

Q. # lookup: test call for CC(=O)SCC(CC(=O)c1ccc(C)cc1)C(=O)O (centres undefined)
A. -1

Q. # lookup: test call for CC1(C)S[C@@H]2[C@H](NC(=O)[C@H](N)c3ccccc3)C(=O)N2[C@H]1C(=O)O
A. -1

Q. # lookup: test call for [O-][n+]1ccccc1SSc1cccc[n+]1[O-]
A. 1

Q. # lookup: test call for O=C(CCN1CCN(CCO)CC1)N1c2ccccc2Sc2ccc(C(F)(F)F)cc21
A. -1

Q. # lookup: test call for N=C(N)N
A. -1

Q. # lookup: test call for CC(=O)c1ccc(OCC(=O)N2CCCCC2)cc1
A. -1
